// values below are reported pIC50
Target: USP25 (USP25-His6, Boston Biochem E-546) (Homo sapiens, UniProt Q9UHP3)
Construct: His6; purchased Boston Biochem E-546
Sequence (Q9UHP3 whole entry): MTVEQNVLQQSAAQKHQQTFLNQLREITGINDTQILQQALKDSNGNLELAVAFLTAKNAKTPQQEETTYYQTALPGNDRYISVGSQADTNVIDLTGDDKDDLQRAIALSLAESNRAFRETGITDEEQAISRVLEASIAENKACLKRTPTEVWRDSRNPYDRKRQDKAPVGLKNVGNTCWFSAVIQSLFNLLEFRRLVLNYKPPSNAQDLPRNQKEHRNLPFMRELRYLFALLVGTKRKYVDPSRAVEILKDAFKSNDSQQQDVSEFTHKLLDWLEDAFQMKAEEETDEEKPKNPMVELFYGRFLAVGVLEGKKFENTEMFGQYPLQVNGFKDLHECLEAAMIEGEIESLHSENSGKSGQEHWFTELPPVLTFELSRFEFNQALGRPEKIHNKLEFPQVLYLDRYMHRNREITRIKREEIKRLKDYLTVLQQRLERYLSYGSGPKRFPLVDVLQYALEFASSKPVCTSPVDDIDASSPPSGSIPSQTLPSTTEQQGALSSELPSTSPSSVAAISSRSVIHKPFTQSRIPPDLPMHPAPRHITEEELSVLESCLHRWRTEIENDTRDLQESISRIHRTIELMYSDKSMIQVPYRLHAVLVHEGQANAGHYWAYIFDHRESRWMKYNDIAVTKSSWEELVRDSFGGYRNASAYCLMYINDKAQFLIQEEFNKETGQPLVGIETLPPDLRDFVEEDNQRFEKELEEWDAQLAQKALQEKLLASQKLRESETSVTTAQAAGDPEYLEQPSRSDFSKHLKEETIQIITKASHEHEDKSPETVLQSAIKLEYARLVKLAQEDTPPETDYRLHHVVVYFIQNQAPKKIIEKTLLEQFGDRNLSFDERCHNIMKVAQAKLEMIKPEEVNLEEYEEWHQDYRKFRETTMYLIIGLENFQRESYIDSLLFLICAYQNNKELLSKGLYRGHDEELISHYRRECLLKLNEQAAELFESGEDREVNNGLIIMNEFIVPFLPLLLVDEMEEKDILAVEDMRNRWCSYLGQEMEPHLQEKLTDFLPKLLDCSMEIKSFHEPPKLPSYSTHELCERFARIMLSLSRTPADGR
Experiment: Ubiquitin-Rhodamine 110 Assay for USP25 Activity, Example A-2
Type: biochemical
Details: Ubiquitin-Rhodamine 110 assay, Example A-2; read-out: USP25 A-2 IC50 range
Procedure: The assay was performed in a final volume of 9 μL in assay buffer containing 20 mM Tris-HCl (pH 8.0, (1M Tris-HCl, pH 8.0 solution; Corning 46-031-CM)), 3 mM BME (2-Mercaptoethanol; Sigma 63689-25ML-F), 0.03% BGG (0.22 μM filtered, Sigma, G7516-25G), and 0.01% Triton X-100 (Sigma, T9284-10L). […] Fluorescence was read on the Envision (Excitation at 485 nm and Emission at 535 nm; Perkin Elmer) or on the PheraSTAR (Excitation at 485 nm and Emission at 535 nm; BMG Labtech). […]
pIC50: −log10 of the molar value.

// worked examples, pIC50 included
COMPOUND	TARGET DESC	pIC50
CCn1ccc2cc(C(=O)N[C@@H]3CCc4cc(N5C[C@H](OC)[C@@H](N)C5)cc(F)c4C3)nnc21	USP25 (USP25-His6, Boston Biochem E-546) (Homo sapiens, UniProt Q9UHP3)	< 5.70
Cc1ccc2c(N)c(C(=O)N[C@H]3COc4cc(N5C[C@H](N)CC[C@@H]5C(F)(F)F)ccc4C3)sc2n1	USP25 (USP25-His6, Boston Biochem E-546) (Homo sapiens, UniProt Q9UHP3)	7.30 to 9.00
Cc1ccn2ncc(C(=O)N[C@H]3COc4cc(N5CCNCC5)ccc4C3)c2c1	USP25 (USP25-His6, Boston Biochem E-546) (Homo sapiens, UniProt Q9UHP3)	< 5.70
COC[C@@]1(C)CN(c2ccc3c(n2)CC[C@H](NC(=O)c2sc4nc(C)ccc4c2N)C3)CC1N (stereo in doubt)	USP25 (USP25-His6, Boston Biochem E-546) (Homo sapiens, UniProt Q9UHP3)	5.70 to 6.70
Cc1ccc2c(N)c(C(=O)N[C@H]3COc4cc(N5CCO[C@@H]6CNC[C@@H]65)ccc4C3)sc2n1	USP25 (USP25-His6, Boston Biochem E-546) (Homo sapiens, UniProt Q9UHP3)	6.70 to 7.30
Cc1ccc2c(N)c(C(=O)N[C@@H]3CCc4nc(N5CCNCC5)ccc4C3)sc2n1 (single isomer, unassigned)	USP25 (USP25-His6, Boston Biochem E-546) (Homo sapiens, UniProt Q9UHP3)	< 5.70

Q) I'd like to know its pIC50. The compound in question is O=C(N[C@H]1COc2c(F)c(N3CC4CCC(C3)N4)cc(F)c2C1)c1cnc2c(c1)[C@H]1C[C@H]1CN2
A) 5.70 to 6.70

* * *

Molecular target: USP25 (USP25-His6, Boston Biochem E-546) (Homo sapiens, UniProt Q9UHP3)
Construct: His6; purchased Boston Biochem E-546
Assay: Ubiquitin-Rhodamine 110 Assay for USP25 Activity, Example A-2
Type: biochemical
Settings: Ub-Rh110 assay, Example A-2; read-out: USP25 A-2 IC50 range
REPORTED ENDPOINT: IC50

// worked examples, IC50 included
COMPOUND	MEASUREMENT
Cc1ccc2c(N)c(C(=O)N[C@H]3COc4cc(N5C6CCC5CNC6)ccc4C3)sc2n1	50 to 200 nM
Cc1ccc2c(N)c(C(=O)N[C@@H]3COc4cc(N5CCN[C@@H](C)[C@@H]5C)ccc4C3)sc2n1 (single isomer, unassigned)	200 to 2000 nM
O=C(N[C@H]1COc2cc(N3CC4CCC(C3)N4)ccc2C1)c1cnc2c(c1)C1(CCN2)CC1	200 to 2000 nM

Continue with the next compound.
Q) I'd like to know its IC50. The compound in question is Cc1ccc2c(N)c(C(=O)N[C@H]3COc4cc(N5CCN[C@@H](C)[C@@H]5C)ccc4C3)sc2n1 (single isomer, unassigned)
A) 200 to 2000 nM

Reference source: patent US11524966B1
